emission maximum overview
- test_description: solvent given as SMILES
- condition_details: in c1ccccc1
Use nm as the unit, but write only the number.

Worked cases, emission maximum given:
COC(=O)C1=C(C(=O)OC)C2=C[C@H]3c4ccccc4[C@]2(S1)c1ccccc13 = 477
C(=C\c1cnccn1)/c1ccc2nccnc2c1 = 410
CNc1cccc2c1-c1ccccc1C2=O = 570

Query block: Consider the molecule "CCC1=C(C)C(=O)n2c1cc1c(C)c(CC(=O)OC)c(C)n1c2=O" and give its measured emission maximum.
Result block: 465

Query block: Consider the molecule "c1ccc(-c2nc(-c3ccc(-c4ccc(N(c5ccccc5)c5ccccc5)cc4)cn3)oc2-c2ccccc2)cc1" and give its measured emission maximum.
Result block: 438
